Target: ER (Homo sapiens, UniProt P03372)
Construct: endogenous in cells
Sequence (P03372 whole entry): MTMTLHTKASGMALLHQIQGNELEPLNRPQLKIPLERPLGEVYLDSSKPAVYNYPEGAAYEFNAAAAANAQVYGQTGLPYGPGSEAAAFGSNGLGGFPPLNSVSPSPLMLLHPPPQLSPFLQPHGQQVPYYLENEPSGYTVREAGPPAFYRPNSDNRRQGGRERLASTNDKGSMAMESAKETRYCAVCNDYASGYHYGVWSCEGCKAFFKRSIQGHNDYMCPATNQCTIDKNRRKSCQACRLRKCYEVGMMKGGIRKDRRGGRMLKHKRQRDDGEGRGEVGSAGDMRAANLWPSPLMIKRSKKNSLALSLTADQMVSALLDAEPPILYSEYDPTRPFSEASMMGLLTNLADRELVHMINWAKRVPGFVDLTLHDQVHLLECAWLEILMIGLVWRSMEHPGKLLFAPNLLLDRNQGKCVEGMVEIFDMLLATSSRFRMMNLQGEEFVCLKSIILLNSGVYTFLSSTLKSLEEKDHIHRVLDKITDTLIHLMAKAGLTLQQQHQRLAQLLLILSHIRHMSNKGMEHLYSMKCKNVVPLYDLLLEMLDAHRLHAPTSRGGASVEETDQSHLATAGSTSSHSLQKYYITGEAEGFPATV
Experiment: ER antagonism (T47D ERE luciferase), T47d-kb-Luc cells
Conditions: read-out: IC50 (ER antagonistm)
attribute.measured: IC50

- CC/C(=C(\c1ccc(O)cc1)c1ccc(OCCN2CCN(C(=O)N3CCC(CN4CCN(c5ccc6c(c5)CN(C5CCC(=O)NC5=O)C6=O)CC4)CC3)CC2)cc1)c1ccccc1 (stereo not drawn): < 0.01 µM

Here is another compound to look at.
API: value(readout=IC50, system=ER (Homo sapiens, UniProt P03372)) for record CC/C(=C(/c1ccc(B(O)O)cc1)c1ccc(N2CCN(CCCC3CCN(c4ccc5c(c4)CN(C4CCC(=O)NC4=O)C5=O)CC3)CC2)cc1)c1ccccc1 (stereo not drawn)
0.01 to 0.05 µM
